tested on: UACC-62; experiment: NCI tumour cell line growth inhibition, 48 h
Calls of active or inactive are those of the source. No stated cut-off is given here; in the data, active = GI50 up to about 1.1 µM and inactive = higher.
Answer each item with its documented GI50.

Completed entries (count: 4):
1. COc1c(Cl)c(=O)oc2ccc(Cl)cc12 | > 100 µM (inactive)
2. CN1C(=O)CN2C(Cl)(Cl)C2(c2ccccc2F)c2cc([N+](=O)[O-])ccc21 (stereo not given) | 28.6 µM (inactive)
3. CC(C)(C)/C(O)=C\c1nc2cc(C(F)(F)F)ccc2[nH]c1=O | > 100 µM (inactive)
4. COC(=O)[C@H](Cc1ccccc1)NC(=O)N(CCC#N)CCN(C(=O)N[C@@H](Cc1ccccc1)C(=O)OC)c1ccccc1 | 3.34 µM (inactive)

--- query ---
*Q* GI50 lookup needed for `[N-]=[N+]=NC1=C(c2ccccn2)C(=O)c2cccc3cccc1c23` , thanks.
*A* 20 µM (inactive)

* * *

For each of the compounds below, state its GI50.
tested on: OVCAR-4; assay: NCI tumour cell line growth inhibition, 48 h
Calls of active or inactive are those of the source. Cut-off read from the data, not from the text of the source: active = GI50 up to about 1.1 µM and inactive = higher.

// worked examples, GI50 included
1) Cc1ccc(S(=O)(=O)NC(=O)NC(CCCCN)C(=O)O)cc1 (stereo not given) | > 100 µM (inactive)
2) NC1=NN(c2ccccc2)C(=O)C1C(=O)C(=O)Nc1ccc(Cl)c(Cl)c1 (stereo not given) | > 100 µM (inactive)
3) COc1ccc(C2S/C(=C\c3ccc(O)cc3)C(=O)N2NC(=O)Cc2ccccc2)cc1 (stereo not given) | > 100 µM (inactive)
4) CNC(=O)N(C)/N=N/CCCl | > 100 µM (inactive)
5) C[Si](C)(OCCS(=O)(=O)O)OC(=C1S(=O)(=O)OCCOS1(=O)=O)c1cccc2ccccc12 | > 100 µM (inactive)
6) N#C/C(=C/c1ccsc1)C(=O)c1ccccc1 | > 100 µM (inactive)

Report GI50 for every entry below.
1. COC(=O)C1=C(C)NC(CF)=C(C(=O)OC)C1c1cccc2c(=O)c3ccccc3oc12 (stereo not given)
2. NC(=O)[N+](=CC(=S)Nc1ccccc1Cl)C(N)=O
3. COC(=O)[C@H](Cc1ccccc1)NC(=O)N(CCC#N)CCN(C(=O)N[C@@H](Cc1ccccc1)C(=O)OC)c1ccccc1
4. OCC1O[C@H](O[C@@H]2CCCN3CC(O)C(O)[C@@H]23)C(O)C(O)C1O (stereo not given in full)

*A*
1. 10.2 µM (inactive)
2. > 100 µM (inactive)
3. 23.6 µM (inactive)
4. > 100 µM (inactive)

* * *

Please respond with reported GI50 for every item in the list.
system: MDA-MB-435; test: NCI tumour cell line growth inhibition, 48 h
Calls of active or inactive are those of the source. No stated cut-off is given here; in the data, active = GI50 up to about 1.1 µM and inactive = higher.

Required: GI50, one value per compound below.
1. O=C(O)C1=C/C(=C(/c2ccccc2)c2cc(C(=O)O)c(O)c3ccccc23)c2ccccc2C1=O
2. CC(C)(C)/C(O)=C\c1nc2cc(C(F)(F)F)ccc2[nH]c1=O

*A*
1: > 100 µM (inactive); 2: > 100 µM (inactive)

Give GI50 for each of the items listed below.
1. Cn1c(=S)[nH]c2sc3c(c2c1=O)CCSC3
2. CC1=C(Cl)C[C@@H](/C(C)=C\Cl)O[C@@]1(O)C(Br)Br
3. O=C(O)/C=N/NC(=S)NC1CCCCC1
4. COc1c(Cl)c(=O)oc2ccc(Cl)cc12
5. CCOC(=O)/C=C(/C=C\COC1CCCCO1)c1ccccc1 (stereo not given)
6. CN(C)CCOc1ccc2[nH]c(C(=O)N3CC(CCl)c4c3cc([N+](=O)[O-])c3ccccc43)cc2c1 (stereo not given)

*A*
1. 49.1 µM (inactive)
2. 31.6 µM (inactive)
3. > 100 µM (inactive)
4. > 100 µM (inactive)
5. 25.2 µM (inactive)
6. 2 µM (inactive)

Look at each compound and report its GI50.
1. Oc1c(/N=N/c2ccccc2)c2ccccc2c2ccc3ccccc3c12
2. COc1ccc(CC2c3cc(OC)c(OC)c(OC)c3CC[N+]2(C)C)cc1Oc1ccc(CC2c3cc4c(c(OC)c3CCN2C)OCO4)cc1 (stereo not given)

*A*
1: > 100 µM (inactive); 2: > 100 µM (inactive)

* * *

system: MDA-MB-231; experiment: NCI tumour cell line growth inhibition, 48 h
Calls of active or inactive are those of the source. Rule as the data show it: active = GI50 up to about 1.1 µM and inactive = higher.
I would appreciate it if you answered using one of these outcomes: YES (active), NO (inactive)

1. CSc1nc(NC(C)C)c2c(n1)Sc1nc3ccccc3n1N=C2 | NO
2. O=C(N/N=C/C=C/c1ccccc1)c1ccccc1Nc1ccccc1C(=O)N/N=C/C=C/c1ccccc1 | NO
3. S=C1NNC(=S)NN1 | YES
4. C[N+](C)(C)c1ncnc2c1ncn2C1CCCCO1 (stereo not drawn) | NO

*Q* So what was the verdict on `COc1ccc(Cc2c(N)[nH]c(=O)n(C)c2=O)cc1` in this test?
*A* NO

*Q* Could you please tell me the result logged for COC(=O)C1(Cc2ccc3c(c2)CCC3)Cc2ccccc2C1O (stereo not drawn) in this assay?
*A* NO

*Q* Per the records of this test, what outcome belongs to COC(=O)C1=C(C)NC(CF)=C(C(=O)OC)C1c1cccc2c(=O)c3ccccc3oc12 (stereo not drawn) ?
*A* NO

* * *

system: Malme-3M; assay: NCI tumour cell line growth inhibition, 48 h
Activity calls are given as the source filed them. Cut-off read from the data, not from the text of the source: active = GI50 up to about 1.1 µM and inactive = higher.
Select the matching outcome among yes (1) for active, no (0) for inactive

*Q* How was `O=S1(=O)NN=C(NCc2ccc(Cl)cc2)c2ccccc21` classified in this test?
*A* no (0)

*Q* Recorded test call requested for NC1c2c(Cl)sc(Cl)c2C(=O)C1O (stereo unspecified)
*A* no (0)

*Q* What outcome does the record of this test show for COc1ccc(P2(=S)SP(=S)(c3ccc(Cl)cc3)S2)cc1 (stereo unspecified) ?
*A* no (0)

*Q* I'd appreciate the recorded outcome for `CC(=O)O[C@H]1CCn2c3c(c(C)c21)C(=O)C(N1CC1)=C(C)C3=O` from this test.
*A* no (0)

*Q* Recorded call for `COC(=O)c1cc2c(cc1O)[C@@H](NC(C)=O)CCc1cc(OC)c(OC)c(OC)c1-2` ?
*A* yes (1)

* * *

Assignment: determine reported GI50 for the given molecules.
test system: UO-31; experiment: NCI tumour cell line growth inhibition, 48 h
Active and inactive are the calls of the source. Rule as the data show it: active = GI50 up to about 1.1 µM and inactive = higher.

Consider the following illustrative entries.
1) NC(=S)Nc1ccc2c(c1)oc1ccccc12 | > 28.4 µM (inactive)
2) O=C(N/N=C/C=C/c1ccccc1)c1ccccc1Nc1ccccc1C(=O)N/N=C/C=C/c1ccccc1 | > 100 µM (inactive)
3) O=S1(=O)NN=C(NCc2ccc(Cl)cc2)c2ccccc21 | > 100 µM (inactive)
4) Fc1ccc(F)c(/C=N/C23CC4CC(CC(C4)C2)C3)c1 | > 10 µM (inactive)
5) C[N+](C)(C)c1ncnc2c1ncn2C1CCCCO1 (stereo not given) | > 100 µM (inactive)

Dear reader, for each entry below, please note its GI50.
1. COC(=O)C1=C(O)C(C(=O)OC)[C@]2(O)[C@H](C(=O)OC)[C@H]1C[C@@H](c1ccccc1OC)[C@H]2C(=O)OC (stereo not given in full)
2. Cc1c(C)n(COCCO)c2ncnc(N)c12
3. S=c1[nH]c(=S)c2cc(Sc3ccc4[nH]c(=S)[nH]c(=S)c4c3)ccc2[nH]1
4. O=C(NCCN1C(=O)CN=C(c2ccc(Cl)cc2)c2cc(Cl)ccc21)OCc1ccccc1
5. CC(C)=CCC[C@@H](C)c1c2nc3ccccc3sc-2c(C)c(=O)c1O

*A*
["10 µM (inactive)", "> 100 µM (inactive)", "26.9 µM (inactive)", "10.9 µM (inactive)", "3.55 µM (inactive)"]

* * *

system: NCI-H23; experiment: NCI tumour cell line growth inhibition, 48 h
The source made the active and inactive calls. Cut-off read from the data, not from the text of the source: active = GI50 up to about 1.1 µM and inactive = higher.
measured_property: GI50

Below are worked cases with known answers.
1. CCC/C(Cl)=N\OC(=O)Nc1ccc(F)cc1 | 20.3 µM (inactive)
2. COc1ccc(CC2c3cc(OC)c(OC)c(OC)c3CC[N+]2(C)C)cc1Oc1ccc(CC2c3cc4c(c(OC)c3CCN2C)OCO4)cc1 (configuration not stated) | > 100 µM (inactive)
3. CCOC(=O)NNC1(SC)NC(=O)c2c(cc(Cl)oc2=O)O1 (configuration not stated) | 3.61 µM (inactive)
4. CCCCCCCCCCCCCCCCCCNc1ccn(C2OC(COP(=O)(O)OCC3OC(n4ccc(NC(=O)CCCCCCCCCCCCCCCCC)nc4=O)C(OC(C)=O)C3OC(C)=O)C(OC(C)=O)C2OC(C)=O)c(=O)n1 (configuration not stated) | > 100 µM (inactive)
5. CC1(O)C=CC2CCC1C2O (configuration not stated) | > 100 µM (inactive)
6. CSC1=N/C(=C\c2ccc(C)cc2)C(=O)N1CN1CCOCC1 | 92.7 µM (inactive)

*Q* Query (compound): `O[C@@H]1C[C@H]2N3CC[C@@]2(c2cc4c(cc2C3)OCO4)[C@H]2O[C@@H]12` ; field requested: GI50
*A* > 100 µM (inactive)
